Cited source: patent US20130344070A1

- study.system: T1, murine CCR2 (murine, UniProt P51683 1-373)
- T1 construct: whole, on cells; also called mouse CCR2; murine CCR2-expressing cells (WEHI 274.1)
- T1 sequence (P51683 whole entry): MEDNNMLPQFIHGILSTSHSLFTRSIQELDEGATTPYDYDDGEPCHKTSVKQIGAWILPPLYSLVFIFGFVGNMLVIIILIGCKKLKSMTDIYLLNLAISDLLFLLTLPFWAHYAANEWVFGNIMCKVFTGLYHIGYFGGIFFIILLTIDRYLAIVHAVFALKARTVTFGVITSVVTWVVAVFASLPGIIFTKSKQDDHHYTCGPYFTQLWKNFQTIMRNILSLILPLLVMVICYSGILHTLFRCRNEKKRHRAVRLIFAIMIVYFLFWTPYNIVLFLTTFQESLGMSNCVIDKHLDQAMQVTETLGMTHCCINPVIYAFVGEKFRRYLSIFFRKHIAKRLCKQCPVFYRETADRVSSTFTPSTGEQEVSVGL
- experimental.details: flow cytometry on WEHI 274.1 cells (murine CCR2), PE anti-human IgG
measurement.type: pEC50
On this scale, pEC50 is minus log10 of a concentration expressed in M (mol/L).

Entry under review: D1-2/LO (antibody, V domains shown, tested as IgG. '/LO' not explained) VH: QVQLVQSGAEVKKPGASVKVSCKASGYTFTGYHMHWVRQAPGQGLEWMGIINPSGGSTSYAQKFQGRVTMTRDTSTSTVYMELSSLRSEDTAVYYCATGGFGYWGEGTLVTVSS VL: LPVLTQPPSVSKGLRQTATLTCTGNSNNVGNQGAAWLQQHQGQPPKLLSYRNHNRPSGVSERFSPSRSGDTSSLTITGLQPEDEADYYCLAWDSSLRAFVFGTGTKLTVL . Reported pEC50?
7.09
